Reference source for all entries: patent US20220378923A1

Biological target: interaction between BRD2 and E3 ligase DCAF16 (Homo sapiens, UniProt P25440)
Construct: expressed in transfected cells; host or cells: HEK293
Sequence (P25440 whole entry): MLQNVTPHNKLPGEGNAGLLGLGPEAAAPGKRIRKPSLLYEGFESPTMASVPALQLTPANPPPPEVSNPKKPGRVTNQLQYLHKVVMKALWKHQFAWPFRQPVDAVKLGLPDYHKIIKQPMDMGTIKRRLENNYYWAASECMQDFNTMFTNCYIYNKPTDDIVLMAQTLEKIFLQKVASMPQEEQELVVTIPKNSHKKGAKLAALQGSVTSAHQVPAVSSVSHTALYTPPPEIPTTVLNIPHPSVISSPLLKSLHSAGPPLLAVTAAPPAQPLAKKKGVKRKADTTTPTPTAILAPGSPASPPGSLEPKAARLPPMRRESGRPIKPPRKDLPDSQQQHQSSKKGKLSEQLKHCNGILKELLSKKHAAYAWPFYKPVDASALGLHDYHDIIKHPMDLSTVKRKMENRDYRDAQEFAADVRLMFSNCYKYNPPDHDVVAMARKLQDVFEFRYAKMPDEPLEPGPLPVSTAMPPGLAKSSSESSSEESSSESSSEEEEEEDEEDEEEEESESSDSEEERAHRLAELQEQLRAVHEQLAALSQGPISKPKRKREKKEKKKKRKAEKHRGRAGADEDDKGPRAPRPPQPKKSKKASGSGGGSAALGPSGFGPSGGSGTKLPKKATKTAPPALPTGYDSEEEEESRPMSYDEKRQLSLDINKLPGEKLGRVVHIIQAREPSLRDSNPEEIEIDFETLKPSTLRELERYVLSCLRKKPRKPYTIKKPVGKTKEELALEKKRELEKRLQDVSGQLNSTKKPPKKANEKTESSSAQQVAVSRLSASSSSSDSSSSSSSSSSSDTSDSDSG
Sequence (Q9NXF7 whole entry partner): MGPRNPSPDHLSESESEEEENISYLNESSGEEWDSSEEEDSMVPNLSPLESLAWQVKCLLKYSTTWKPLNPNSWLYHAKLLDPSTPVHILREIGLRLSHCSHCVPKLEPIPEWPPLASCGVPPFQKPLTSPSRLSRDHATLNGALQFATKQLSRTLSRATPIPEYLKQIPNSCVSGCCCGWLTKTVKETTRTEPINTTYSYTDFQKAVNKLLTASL
Test: Verification of BET-DCAF16 interaction, comparative test with known compounds (Test Example 8)
Assay type: cell-based
Details: test compound 1.0 μmol/L; HEK293 cells expressing Nluc-BRD2 and DCAF16-HaloTag; MLN4924 instead of bortezomib; substrate diluted 200-fold
Could you please report measured BRET Ratio for the items listed next?
Lab note: record the figure alone, no unit after it.

Record CCC(=O)N1c2ccccc2[C@H](Nc2ccc(C(=O)NCc3cn(-c4ccc(N[C@@H]5C[C@H](C)N(C(=O)CC)c6ccccc65)cc4)nn3)cc2)C[C@@H]1C , field BRET Ratio: 14.46

Record CCC(=O)N1c2ccccc2[C@H](Nc2ccc(C(=O)NCCCNC(=O)c3ccc(C4=N[C@@H](CC(=O)OC(C)(C)C)c5nnc(C)n5-c5sc(C)c(C)c54)cc3)cc2)C[C@@H]1C , field BRET Ratio: 10.95

Record CCC(=O)N1c2ccccc2[C@H](Nc2ccc(NC(=O)CCCC(=O)NC3CCC(N[C@@H]4C[C@H](C)N(C(=O)CC)c5ccccc54)CC3)cc2)C[C@@H]1C (some centres unmarked) , field BRET Ratio: 13.00

Record CCC(=O)N1c2ccccc2[C@H](Nc2ccc(C(=O)N3CCn4c(-c5ccc(N[C@@H]6C[C@H](C)N(C(=O)CC)c7ccccc76)cc5)cnc4C3)cc2)C[C@@H]1C , field BRET Ratio: 9.58

Record CCC(=O)N1c2ccccc2[C@H](Nc2ccc(NC(=O)CCCC(=O)Nc3ccc(Cn4c(C(=O)OCCN(C)C)cc5c4CCCC5=O)cc3)cc2)C[C@@H]1C [Compound 15a] , field BRET Ratio: 9.59

====

Test system: SU-DHL-4 cells
Test: Inhibitory effect on cell viability in SU-DHL-4 cell line (Test Example 1)
Assay type: cell-based, human
Conditions: SU-DHL-4 cells, 72 hours, Cell Counting Kit-8; concentration showing 90% inhibition of cell viability; read-out: SU-DHL-4 Cell Viability Inhibition Rate IC90
experimentalReadout: IC90 (nM)
Express it in nM; write the number only.

Record CCC(=O)N1c2ccccc2[C@H](Nc2ccc(NC(=O)CCCC(=O)NC3CCC(Oc4ccc(NS(=O)(=O)CC)cc4-c4cn(C)c(=O)cc4OC)CC3)cc2)C[C@@H]1C (some centres unmarked) [Compound 16l] , field IC90: 89.8

Record CCC(=O)N1c2ccccc2[C@H](Nc2ccc(SCCNC(=O)C3CCC(N[C@@H]4C[C@H](C)N(C(=O)CC)c5ccccc54)CC3)cc2)C[C@@H]1C (relative stereo) [Compound 8i] , field IC90: 2.69

Record CCC(=O)N1c2ccccc2[C@H](Nc2ccc(NC(=O)CCCC(=O)NC3CCC(Cn4cc(-c5c(C)noc5C)ccc4=O)CC3)cc2)C[C@@H]1C (some centres unmarked) [Compound 16p] , field IC90: 0.63

Record CCC(=O)N1c2ccccc2[C@H](Nc2ccc(C(=O)NCCCNC(=O)c3ccc(Cn4c(C(=O)OCCN(C)C)cc5c4CCCC5=O)cc3)cc2)C[C@@H]1C [Compound 15e] , field IC90: 34

Record CCC(=O)N1c2ccccc2[C@H](Nc2ccc(C(=O)NCCNS(=O)(=O)c3ccc(N[C@@H]4C[C@H](C)N(C(=O)CC)c5ccccc54)cc3)cc2)C[C@@H]1C [Compound 4d] , field IC90: 13

Record CCC(=O)N1c2ccccc2[C@H](Nc2ccc(-n3cc(CNC(=O)C4CCC(N[C@@H]5C[C@H](C)N(C(=O)CC)c6ccccc65)CC4)nn3)cc2)C[C@@H]1C (relative stereo) [Compound 8l] , field IC90: 0.04

Record CCC(=O)N1c2ccccc2[C@H](Nc2ccc(NC(=O)CNC(=S)OC3CCC(N[C@@H]4C[C@H](C)N(C(=O)CC)c5ccccc54)CC3)cc2)C[C@@H]1C (relative stereo) [Compound 7d] , field IC90: 25.9

Record CCC(=O)N1c2ccccc2[C@H](Nc2ccc(-c3cnc4n3CCN(C(=O)C3CCC(N[C@@H]5C[C@H](C)N(C(=O)CC)c6ccccc65)CC3)C4)cc2)C[C@@H]1C (relative stereo) [Compound 8h] , field IC90: 1.14

Record CCC(=O)N1c2ccccc2[C@H](Nc2ccc(Cn3cc(C(=O)Nc4ccc(N[C@@H]5C[C@H](C)N(C(=O)CC)c6ccccc65)cc4)nn3)cc2)C[C@@H]1C [Compound 5j] , field IC90: 0.08

Record CCC(=O)N1c2ccccc2[C@H](Nc2ccc(NC(=O)COC(=O)N[C@H]3CC[C@H](N[C@@H]4C[C@H](C)N(C(=O)CC)c5ccccc54)CC3)cc2)C[C@@H]1C [Compound 7f] , field IC90: 3.2

Record CCC(=O)N1c2ccccc2[C@H](Nc2ccc(NC(=O)CCCC(=O)Nc3ccc(Cn4c(C(=O)OCCN(C)C)cc5c4CCCC5=O)cc3)cc2)C[C@@H]1C [Compound 15a] , field IC90: 0.34
